- Test system: human Factor 7 mRNA
- assay_protocol: Inhibition of human Factor 7 mRNA by 2-10-2 MOE shortmers in HepB3 cells, electroporation, 1,000 nM
- Type: cell-based
- test_context: electroporation, 1,000 nM oligonucleotide, approximately 24 hours, relative to untreated control cells
In the oligonucleotide strings, read from the 5' end, every base follows the letter of its sugar. An asterisk marks phosphorothioate; unmarked linkages are phosphodiester. Other units and linkages are bracketed, terminal groups are in braces. A string of capitals states the bases alone. e = 2'-O-(2-methoxyethyl) (MOE); [5mC] = 5-methylcytosine; d = 2'-deoxy (DNA)
Provide the recorded % inhibition of human Factor 7 mRNA for the entries that follow.
Give bare numbers, in %.

Example substances with recorded % inhibition of human Factor 7 mRNA:
- substance: "435813 (antisense eG*eG*dA*dT*dG*d[5mC]*dA*d[5mC]*dA*d[5mC]*d[5mC]*dA*eG*eG) [compound 435813]"
  unit_info: "%"
  % inhibition of human Factor 7 mRNA: 55
- substance: "435694 (antisense e[5mC]*eT*dG*d[5mC]*dA*dG*dG*d[5mC]*dA*dG*dT*d[5mC]*e[5mC]*eT) [compound 435694]"
  unit_info: "%"
  % inhibition of human Factor 7 mRNA: 39

# map each substance to its % inhibition of human Factor 7 mRNA
1. 435741 (antisense eA*eG*dG*dG*dT*dT*d[5mC]*dA*dT*dT*dT*d[5mC]*eA*eG) [compound 435741]
2. 435681 (antisense eA*eT*dG*dA*d[5mC]*d[5mC]*dT*dG*d[5mC]*dG*d[5mC]*d[5mC]*eA*e[5mC]) [compound 435681]

RESULT:
1. 6
2. 40

QUERY: Recorded % inhibition of human Factor 7 mRNA of 435779 (antisense eT*eG*dA*dG*d[5mC]*dG*d[5mC]*dG*dG*dA*dA*dG*eA*eA) [compound 435779] , please.
RESULT: 50
